# tested_on: partially purified telomerase from a nuclear extract of HEK293 cells (Homo sapiens)
# Construct: partially purified telomerase from a nuclear extract of HEK293 cells; endogenous in cells; host or cells: HEK293 cells, nuclear extract, partially purified
# Sequence (O14746 whole entry): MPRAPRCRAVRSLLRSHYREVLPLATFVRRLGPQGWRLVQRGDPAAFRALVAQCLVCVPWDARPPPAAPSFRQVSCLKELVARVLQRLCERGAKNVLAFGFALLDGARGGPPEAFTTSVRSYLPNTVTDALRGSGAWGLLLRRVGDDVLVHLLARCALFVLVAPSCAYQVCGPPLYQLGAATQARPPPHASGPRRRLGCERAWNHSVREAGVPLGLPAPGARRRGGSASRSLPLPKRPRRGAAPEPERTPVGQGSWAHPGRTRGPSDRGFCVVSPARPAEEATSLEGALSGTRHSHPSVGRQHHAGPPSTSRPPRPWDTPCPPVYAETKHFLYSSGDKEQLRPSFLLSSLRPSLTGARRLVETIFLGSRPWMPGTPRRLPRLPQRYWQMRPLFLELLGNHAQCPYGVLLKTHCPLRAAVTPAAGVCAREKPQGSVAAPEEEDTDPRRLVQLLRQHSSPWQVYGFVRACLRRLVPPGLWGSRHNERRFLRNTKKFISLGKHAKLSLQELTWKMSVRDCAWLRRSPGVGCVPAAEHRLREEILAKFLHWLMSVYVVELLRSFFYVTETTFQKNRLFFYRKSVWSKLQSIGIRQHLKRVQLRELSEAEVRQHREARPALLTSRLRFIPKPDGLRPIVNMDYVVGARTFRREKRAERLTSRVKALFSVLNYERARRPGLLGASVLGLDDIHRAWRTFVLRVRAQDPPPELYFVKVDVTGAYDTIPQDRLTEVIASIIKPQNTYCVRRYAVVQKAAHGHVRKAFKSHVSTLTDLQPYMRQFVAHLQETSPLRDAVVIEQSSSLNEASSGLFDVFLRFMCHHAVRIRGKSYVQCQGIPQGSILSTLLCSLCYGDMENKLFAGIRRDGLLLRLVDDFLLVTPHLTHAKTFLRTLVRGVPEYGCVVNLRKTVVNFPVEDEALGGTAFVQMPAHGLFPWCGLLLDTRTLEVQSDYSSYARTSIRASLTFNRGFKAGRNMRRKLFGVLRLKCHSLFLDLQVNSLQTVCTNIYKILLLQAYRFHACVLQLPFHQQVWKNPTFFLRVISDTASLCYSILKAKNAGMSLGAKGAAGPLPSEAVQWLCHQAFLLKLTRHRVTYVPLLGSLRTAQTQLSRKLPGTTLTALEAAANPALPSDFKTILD
# Sequence (O60832 whole entry partner): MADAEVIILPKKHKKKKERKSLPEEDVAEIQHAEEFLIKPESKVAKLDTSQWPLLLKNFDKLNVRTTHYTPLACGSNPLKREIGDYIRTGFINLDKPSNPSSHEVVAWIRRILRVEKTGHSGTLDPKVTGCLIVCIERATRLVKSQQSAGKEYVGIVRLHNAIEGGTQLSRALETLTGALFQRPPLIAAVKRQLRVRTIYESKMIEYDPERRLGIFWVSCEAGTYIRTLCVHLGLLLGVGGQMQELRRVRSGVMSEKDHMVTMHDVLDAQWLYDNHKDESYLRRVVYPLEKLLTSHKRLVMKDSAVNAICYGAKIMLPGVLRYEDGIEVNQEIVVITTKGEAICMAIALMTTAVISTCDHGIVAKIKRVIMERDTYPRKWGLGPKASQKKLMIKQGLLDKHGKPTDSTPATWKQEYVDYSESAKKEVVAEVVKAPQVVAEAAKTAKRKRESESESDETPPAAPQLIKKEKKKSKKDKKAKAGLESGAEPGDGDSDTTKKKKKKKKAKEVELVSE
# Sequence (Q9NPE3 whole entry partner): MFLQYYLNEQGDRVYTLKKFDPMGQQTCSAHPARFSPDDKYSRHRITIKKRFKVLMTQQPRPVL
# Sequence (Q9NX24 whole entry partner): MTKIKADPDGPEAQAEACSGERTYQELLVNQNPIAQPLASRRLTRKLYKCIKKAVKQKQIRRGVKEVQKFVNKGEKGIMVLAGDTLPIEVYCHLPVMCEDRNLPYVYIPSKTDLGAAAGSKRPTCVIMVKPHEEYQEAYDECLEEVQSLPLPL
# Sequence (Q9NY12 whole entry partner): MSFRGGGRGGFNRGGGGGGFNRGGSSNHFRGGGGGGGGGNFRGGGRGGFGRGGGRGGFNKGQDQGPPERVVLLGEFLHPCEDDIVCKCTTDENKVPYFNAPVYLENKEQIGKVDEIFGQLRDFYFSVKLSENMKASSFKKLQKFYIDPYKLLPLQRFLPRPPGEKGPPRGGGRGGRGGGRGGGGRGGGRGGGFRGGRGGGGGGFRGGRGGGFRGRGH
# experimental_protocol: In vitro telomerase inhibition, membrane hybridization method (U.S. Pat. No. 5,760,062)
# Format: biochemical
# details: partially purified telomerase from nuclear extract of HEK293 cells
# Protocol: Alternatively, telomerase inhibitory activity of the compounds was measured in accordance with a known method (U.S. Pat. No. 5,760,062). […] The inhibition ratio was calculated based on the ratio of the signal of label on the membrane in the presence of the agent to the signal of label in the absence of the agent (control). […]
reported_property: IC50 (µM)

Look over these answered cases.
- O=C1NC(=O)C(=Cc2cccc(Oc3ccc(Cl)c(Cl)c3)c2)S1 [Compound 13]: 5.9
- O=C1NC(=O)C(=Cc2ccccc2OC(F)(F)F)S1 [Compound 127]: 5.7
- Cc1ccc(COc2ccc(C=C3SC(=O)NC3=O)cc2[N+](=O)[O-])cc1 [Compound 20]: 9

a. O=C1NC(=O)C(=Cc2cc([N+](=O)[O-])ccc2S(=O)(=O)Cc2ccccc2)S1 [Compound 78]
b. Cc1ccc(Sc2ccc(-c3ccco3)cc2C=C2SC(=O)NC2=O)cc1 [Compound 90]
Prompt line: // pick min by IC50: a , b Use the label to indicate which entry you chose.
Response line: b
